Data origin: patent US11180510B2

Assay system: Brdt(BD1) (Homo sapiens)
Construct: GST tagged bromodomain proteins were purchased from BPS Bioscience
Measurement protocol: HTRF BET selectivity profile, Brdt(BD1)
Property name: IC50 (nM)

Would you please look over these solved cases?
Any idea what IC50 came out for CCn1cnc2c1c(=O)[nH]c(=O)n2Cc1ccc(CNS(=O)(=O)c2cccc(-c3ccccc3)c2)cc1 [Compound 29c] on Brdt(BD1) (Homo sapiens)?
7440

Try this compound too: CCn1cnc2c1c(=O)[nH]c(=O)n2Cc1ccc(CNS(=O)(=O)c2ccc(Oc3ccccc3)cc2)cc1 [Compound 30c]
1180

Try CCCCc1c(C)nc2nc(SCc3nc4c(c(=O)[nH]c(=O)n4Cc4ccc(CNS(=O)(=O)c5ccc6c(c5)CCCC(=O)N6)cc4)n3CC)nn2c1C [Compound 32c] next.
18900

[a] CCn1cnc2c1c(=O)[nH]c(=O)n2Cc1ccc(CNS(=O)(=O)c2ccc(OC3CCCCC3)cc2)cc1 [Compound 43a]
[b] CCn1cnc2c1c(=O)[nH]c(=O)n2Cc1ccc(CNS(=O)(=O)c2ccc(-c3cc(C)n[nH]3)s2)cc1 [Compound 25a]
Looking at a and b , which one comes out lower in IC50 terms? Mark your selection by writing its label.
a
(a: 474 nM, b: 3470 nM)

* * *

Assay system: BRD4(BD1) (Homo sapiens)
Measurement protocol: HTRF assay, BRD4(BD1)/histone peptide interaction
Type: binding
Design: made in house
Condition description: HTRF; triplicates; NA = IC50 > maximal concentration of compound used
pIC50: −log10 of the molar value.
Property name: pIC50

Look up pIC50 for this compound: CCc1nc(S(=O)(=O)NCc2ccc(Cn3c(=O)[nH]c(=O)c4c3ncn4CC)cc2)cn1C [Compound 23c]
5.89

[A] Cc1noc(C)c1CNC(=O)c1ccc(CNS(=O)(=O)c2ccc3c(c2)CCCC(=O)N3)cc1 [Compound 15c]
[B] CCn1cnc2c1c(=O)[nH]c(=O)n2Cc1cc(OC)c(CNS(=O)(=O)c2ccc3c(c2)CCCC(=O)N3)cc1OC [Compound 32a]
[C] CCn1cnc2c1c(=O)[nH]c(=O)n2Cc1ccc(CNS(=O)(=O)c2ccccc2)cc1 [Compound 29a]
Put these in order: smallest pIC50 first, largest last. Labels, requested order.
B, A, C
(B: 4.89, A: 5.11, C: 5.80)

[a] CCC[C@@H](N)C(=O)NCc1ccc(Cn2c(=O)[nH]c(=O)c3c2ncn3CC)cc1 [Compound 40b]
[b] CCn1cnc2c1c(=O)[nH]c(=O)n2Cc1ccc(CNC(=O)c2ccc(Cn3cccc3)cc2)cc1 [Compound 33a]
[c] CCn1cnc2c1c(=O)[nH]c(=O)n2Cc1ccc(CNS(=O)(=O)c2ccc(C)cc2)cc1 [Compound 28c]
List from greatest to least pIC50. Sort the labels as requested; that list is your answer.
b, c, a

[I] CCn1cnc2c1c(=O)[nH]c(=O)n2Cc1ccc(CNC(=O)c2ccc(Oc3ccccc3)cc2)cc1 [Compound 37a]
[II] CCn1cnc2c1c(=O)[nH]c(=O)n2Cc1ccc(CNS(=O)(=O)CCCN2CCOCC2)cc1 [Compound 22b]
Smaller pIC50 value? Options are I and II Reply with the label of the item you choose.
II

[I] CCn1cnc2c1c(=O)[nH]c(=O)n2Cc1ccc(CNC(=O)C2CCN(C)C2)cc1 (stereo not shown) [Compound 34a]
[II] Cc1noc(C)c1CCNC(=O)c1ccc(CNS(=O)(=O)c2ccc3c(c2)CCCC(=O)N3)cc1 [Compound 16a]
Exercise: compare I and II ; which one has the greater pIC50? Selection: enter the item's label.
I

* * *

Assay system: Brd3(BD1) (Homo sapiens, UniProt Q15059)
Sequence (Q15059 34-140 limits assumed): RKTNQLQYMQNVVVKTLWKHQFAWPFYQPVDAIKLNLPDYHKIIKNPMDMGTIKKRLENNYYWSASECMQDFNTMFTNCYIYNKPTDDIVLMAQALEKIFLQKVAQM
Measurement protocol: HTRF BET selectivity profile, Brd3(BD1)
Format: binding
Parameters: GST tagged bromodomain proteins were purchased from BPS Bioscience; purchased BPS Bioscience
Condition description: selectivity Brd3(BD1) vs Brd3(BD2), HTRF IC50
Property name: Ratio 3-1 vs 3-2

Can you look up the measured Ratio 3-1 vs 3-2 of CCn1cnc2c1c(=O)[nH]c(=O)n2Cc1ccc(CNS(=O)(=O)c2ccc(N3CCOCC3)cc2)cc1 [Compound 45a] for me?
10

CCn1cnc2c1c(=O)[nH]c(=O)n2Cc1ccc(CNS(=O)(=O)c2ccc(OC3CCCCC3)cc2)cc1 [Compound 43a] , same question.
10

* * *

Assay system: Brd2(BD1) (Homo sapiens)
Construct: GST tagged bromodomain proteins were purchased from BPS Bioscience; purchased BPS Bioscience
Sequence (P25440 74-180 limits assumed): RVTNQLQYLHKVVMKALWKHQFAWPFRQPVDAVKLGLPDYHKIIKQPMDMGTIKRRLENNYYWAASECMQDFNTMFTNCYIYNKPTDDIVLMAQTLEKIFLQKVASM
Measurement protocol: HTRF BET selectivity profile, Brd2(BD1)
Format: binding
Condition description: selectivity Brd2(BD1) vs Brd2(BD2), HTRF IC50
Procedure: HTRF assays were performed in white 384 Well Small Volume™ HiBase Polystyrene Microplates (Greiner) with a total working volume of 20 μL. […] Percentage of inhibition was calculated using the following equation: % inhibition=[(compound signal)−(min signal)]/[(max signal)−(min signal)]*100, where ‘max signal’ is the signal ratio with the compound vehicle alone (DMSO) and ‘min signal’ the signal ratio without peptide. […]
Property name: Ratio 2-1 vs 2-2

Give its Ratio 2-1 vs 2-2 value. Item: CCn1cnc2c1c(=O)[nH]c(=O)n2Cc1ccc(CNS(=O)(=O)c2ccn(-c3ccccc3)n2)cc1 [Compound 24b]
2

[P] CCn1cnc2c1c(=O)[nH]c(=O)n2Cc1ccc(CNS(=O)(=O)c2ccc(-c3ccccc3)cc2)cc1 [Compound 29b]
[Q] CCn1cnc2c1c(=O)[nH]c(=O)n2Cc1ccc(CNS(=O)(=O)c2ccc3c(c2)CCC(=O)N3)cc1 [Compound 27b]
Hi team, can someone confirm which has the larger Ratio 2-1 vs 2-2: P or Q ? Thanks. Field: selected label. Fill in the label of the entry you choose.
P
(P: 5, Q: 2)

* * *

Assay system: BRD4(BD1) (Homo sapiens, UniProt O60885)
Measurement protocol: HTRF assay, BRD4(BD1)/histone peptide interaction
Assay type: binding
Parameters: made in house
Condition description: HTRF; triplicates; NA = IC50 > maximal concentration of compound used
Property name: IC50 (nM)

Some molecules with known IC50 results, for comparison:
May I ask what IC50 has been recorded for CCn1cnc2c1c(=O)[nH]c(=O)n2Cc1ccc(CNS(=O)(=O)c2ccc(-c3ccccc3)cc2)cc1 [Compound 29b] ?
450

Next molecule: CCn1cnc2c1c(=O)[nH]c(=O)n2Cc1ccc(CNS(C)(=O)=O)cc1 [Compound 20b]
4300

Another molecule to look at: CCn1cnc2c1c(=O)[nH]c(=O)n2Cc1ccc(CNC(=O)C(NC(=O)OC(C)(C)C)c2ccc(C)cc2)cc1 (stereo not shown) [Compound 37b]
4900

What do we get for CCn1cnc2c1c(=O)[nH]c(=O)n2Cc1ccc(CNS(=O)(=O)c2ccn(C(C)C)n2)cc1 [Compound 24a] ?
2700

Then CCn1cnc2c1c(=O)[nH]c(=O)n2Cc1ccc(CNC(=O)[C@H](CC2CC2)NC(=O)OC(C)(C)C)cc1 [Compound 38c] ?
5500

[a] CCC[C@H](NC(=O)OC(C)(C)C)C(=O)NCc1ccc(Cn2c(=O)[nH]c(=O)c3c2ncn3CC)cc1 [Compound 39b]
[b] CCn1cnc2c1c(=O)[nH]c(=O)n2Cc1ccc(CNS(=O)(=O)c2cc3ccccc3s2)cc1 [Compound 25b]
Hello, I am sorting some records. Could you say if a or b has the smaller IC50 value? // caller expects the label of the chosen entry
b

[1] CCn1cnc2c1c(=O)[nH]c(=O)n2Cc1ccc(CNS(=O)(=O)c2cc(C)ns2)cc1 [Compound 24c]
[2] CCn1cnc2c1c(=O)[nH]c(=O)n2Cc1ccc(CNS(=O)(=O)c2ccc(N)cc2)cc1 [Compound 28b]
Larger number for IC50: 1 , or 2 ? Your answer should be the label attached to the chosen record.
1
(1: 1700 nM, 2: 729 nM)

* * *

Assay system: BRD4(BD1) (Homo sapiens, UniProt O60885)
Measurement protocol: HTRF assay, BRD4(BD1)/histone peptide interaction
Assay type: binding
Set-up: made in house
Condition description: selectivity Brd4(BD1) vs Brd4(BD2), HTRF IC50
Property name: Ratio 4-1 vs 4-2

So what's the measured Ratio 4-1 vs 4-2 for this one? CCCCc1c(C)nc2nc(SCc3nc4c(c(=O)[nH]c(=O)n4Cc4ccc(CNS(=O)(=O)c5ccc6c(c5)CCCC(=O)N6)cc4)n3CC)nn2c1C [Compound 32c]
9

[1] CCn1cnc2c1c(=O)[nH]c(=O)n2Cc1ccc(CNS(=O)(=O)c2cccc(-c3ccccc3)c2)cc1 [Compound 29c]
[2] CCn1cnc2c1c(=O)[nH]c(=O)n2Cc1ccc(CNS(=O)(=O)c2ccn(-c3ccccc3)n2)cc1 [Compound 24b]
Returns: the label, 1 or 2 , whose recorded Ratio 4-1 vs 4-2 is the lower number. Lab log: write the label of the selected item as the result.
2
(2: 7, 1: 15)

* * *

Assay system: Brd2(BD1) (Homo sapiens)
Construct: GST tagged bromodomain proteins were purchased from BPS Bioscience; purchased BPS Bioscience
Measurement protocol: HTRF BET selectivity profile, Brd2(BD1)
Assay type: binding
Condition description: read-out: Brd2(BD1) IC50
pIC50: −log10 of the molar value.
Property name: pIC50

The cases that follow already have their pIC50 on record.
Quick one: pIC50 for CCn1cnc2c1c(=O)[nH]c(=O)n2Cc1ccc(CNS(=O)(=O)c2ccc3c(c2)CCCC(=O)N3)c2ccccc12 [Compound 31c] ?
5.36

And what about the molecule CCn1cnc2c1c(=O)[nH]c(=O)n2Cc1ccc(CNS(=O)(=O)c2cccc(-c3ccccc3)c2)cc1 [Compound 29c] ?
5.26

[a] CCn1cnc2c1c(=O)[nH]c(=O)n2Cc1ccc(CNS(=O)(=O)c2ccc(OC3CCOCC3)c(F)c2)cc1 [Compound 43c]
[b] CCn1cnc2c1c(=O)[nH]c(=O)n2Cc1ccc(CNS(=O)(=O)c2ccc3scnc3c2)cc1 [Compound 25c]
[c] CCn1cnc2c1c(=O)[nH]c(=O)n2Cc1ccc(CNS(=O)(=O)c2ccc3c(c2)CCCC(=O)N3)cc1 [Compound 27c]
Arrange these 3 molecules in increasing order of pIC50. Reply format: the labels, ordered as requested.
b, c, a
(b: 5.38, c: 6.47, a: 6.74)
